Test system: NCI-H719 tumor spheroids, viability
Test: Anticancer human tumor NCI-H719 cell line growth inhibition;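 also: spheroids exposed to compounds for seven days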
Settings: curve of first compound; second compound 0.003 µM; spheroids with HUVEC and MSC
Readings of IC50 for the listed compounds
testReadout: IC50

{"columns": ["compound", "testReadout", "recordedValue"],
 "data": [
  ["COc1ccc([C@@H](O)c2cc(-c3ncnc4cc(N5CCOCC5)ccc34)c(F)cc2Cl)nn1 + CC[C@@]1(O)C(=O)OCc2c1cc1n(c2=O)Cc2cc3c(CN(C)C)c(O)ccc3nc2-1", "IC50", "< 31.6 nM"],
  ["COc1ccc([C@@H](O)c2cc(-c3ncnc4cc(N5CCOCC5)ccc34)c(F)cc2Cl)nn1 + COc1cc2c(cc1O)CCNC21CSC2c3c(OC(C)=O)c(C)c4c(c3C(COC1=O)N1C(O)C3Cc5cc(C)c(OC)c(O)c5C(C21)N3C)OCO4", "IC50", "< 31.6 nM"],
  ["COc1cc(C)[nH]c(=O)c1CN1CCc2c(Cl)cc(C(OC)C3COC3)c(Cl)c2C1=O (stereo not drawn) + COc1cc2c(cc1O)CCNC21CSC2c3c(OC(C)=O)c(C)c4c(c3C(COC1=O)N1C(O)C3Cc5cc(C)c(OC)c(O)c5C(C21)N3C)OCO4", "IC50", "< 31.6 nM"]
]}

====

Tested on: NCI-H719 tumor spheroids, viability
Experiment: Anticancer human tumor NCI-H719 cell line growth inhibition;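 also: spheroids exposed to compounds for seven days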;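 as to viability, T/C: percent viability relative to DMSO vehicle control as 100%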
Conditions: second compound 1 µM; first compound 0.1 µM; stronger effect = lower value; spheroids with HUVEC and MSC

{"columns": ["compound", "viability, T/C"],
 "data": [
  ["COc1ccc([C@@H](O)c2cc(-c3ncnc4cc(N5CCOCC5)ccc34)c(F)cc2Cl)nn1 + Cn1nnc2c(C(N)=O)ncn2c1=O", "78.5%"],
  ["[2H]c1nc(C)nc([2H])c1-c1cc(NC[C@@H](C)c2cccc3c(C(=O)NC)ccnc23)ncn1 + Cn1nnc2c(C(N)=O)ncn2c1=O", "101%"],
  ["CC(C)n1c(=O)n(C)c2cnc3cc(F)c(-c4ccc(OCCCN5CCCCC5)nc4)cc3c21 + Cn1nnc2c(C(N)=O)ncn2c1=O", "107%"],
  ["COc1cc(C)[nH]c(=O)c1CN1CCc2c(Cl)cc(C(OC)C3COC3)c(Cl)c2C1=O (stereo unspecified) + Cn1nnc2c(C(N)=O)ncn2c1=O", "101%"],
  ["CC1COCCN1c1cc(-c2ccnn2C)c2ccnc(-c3ccn[nH]3)c2n1 (stereo unspecified) + Cn1nnc2c(C(N)=O)ncn2c1=O", "47.4%"],
  ["Cc1cc(C)c(CNC(=O)c2cc(-c3ccc(CN4CCOCC4)cc3)cc3c2cnn3C2CCCC2)c(=O)[nH]1 + Cn1nnc2c(C(N)=O)ncn2c1=O", "105%"]
]}

====

Tested on: NCI-H719 tumor spheroids, viability
Experiment: Anticancer human tumor NCI-H719 cell line growth inhibition;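 also: spheroids exposed to compounds for seven days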
Conditions: curve of first compound; second compound 0.003 µM; spheroids with HUVEC and MSC
pIC50: −log10 of the molar value.

{"columns": ["molecule", "pIC50"],
 "data": [
  ["Cc1sc2c(c1C)C(c1ccc(Cl)cc1)=NC(CC(=O)Nc1ccc(O)cc1)c1nnc(C)n1-2 (stereo not given) + COc1cc2c(cc1O)CCNC21CSC2c3c(OC(C)=O)c(C)c4c(c3C(COC1=O)N1C(O)C3Cc5cc(C)c(OC)c(O)c5C(C21)N3C)OCO4", "> 8.02"],
  ["Cc1cc(C)c(CNC(=O)c2cc(-c3ccc(CN4CCOCC4)cc3)cc3c2cnn3C2CCCC2)c(=O)[nH]1 + CC[C@@]1(O)C(=O)OCc2c1cc1n(c2=O)Cc2cc3c(CN(C)C)c(O)ccc3nc2-1", 5.65],
  ["CNCc1ccc(-c2cc(-c3nc(-c4ccc(S(=O)(=O)C(C)C)cc4)cnc3N)on2)cc1 + COc1cc2c(cc1O)CCNC21CSC2c3c(OC(C)=O)c(C)c4c(c3C(COC1=O)N1C(O)C3Cc5cc(C)c(OC)c(O)c5C(C21)N3C)OCO4", "> 8.02"],
  ["CC1COCCN1c1cc(-c2ccnn2C)c2ccnc(-c3ccn[nH]3)c2n1 (stereo not given) + CC[C@@]1(O)C(=O)OCc2c1cc1n(c2=O)Cc2cc3c(CN(C)C)c(O)ccc3nc2-1", "> 7.50"],
  ["Cc1sc2c(c1C)C(c1ccc(Cl)cc1)=NC(CC(=O)Nc1ccc(O)cc1)c1nnc(C)n1-2 (stereo not given) + CC[C@@]1(O)C(=O)OCc2c1cc1n(c2=O)Cc2cc3c(CN(C)C)c(O)ccc3nc2-1", "> 8.02"],
  ["COc1cc(C)[nH]c(=O)c1CN1CCc2c(Cl)cc(C(OC)C3COC3)c(Cl)c2C1=O (stereo not given) + CC[C@@]1(O)C(=O)OCc2c1cc1n(c2=O)Cc2cc3c(CN(C)C)c(O)ccc3nc2-1", "< 5.00"],
  ["Cc1cc(C)c(CNC(=O)c2cc(-c3ccc(CN4CCOCC4)cc3)cc3c2cnn3C2CCCC2)c(=O)[nH]1 + COc1cc2c(cc1O)CCNC21CSC2c3c(OC(C)=O)c(C)c4c(c3C(COC1=O)N1C(O)C3Cc5cc(C)c(OC)c(O)c5C(C21)N3C)OCO4", "> 7.50"],
  ["CC1COCCN1c1cc(-c2ccnn2C)c2ccnc(-c3ccn[nH]3)c2n1 (stereo not given) + COc1cc2c(cc1O)CCNC21CSC2c3c(OC(C)=O)c(C)c4c(c3C(COC1=O)N1C(O)C3Cc5cc(C)c(OC)c(O)c5C(C21)N3C)OCO4", "> 7.50"],
  ["O=C(c1cc(Cc2n[nH]c(=O)c3ccccc23)ccc1F)N1CCN(C(=O)C2CC2)CC1 + CC[C@@]1(O)C(=O)OCc2c1cc1n(c2=O)Cc2cc3c(CN(C)C)c(O)ccc3nc2-1", "> 7.02"],
  ["CNCc1ccc(-c2cc(-c3nc(-c4ccc(S(=O)(=O)C(C)C)cc4)cnc3N)on2)cc1 + CC[C@@]1(O)C(=O)OCc2c1cc1n(c2=O)Cc2cc3c(CN(C)C)c(O)ccc3nc2-1", 7.95]
]}

====

System: NCI-H719 tumor spheroids, viability
Assay: Anticancer human tumor NCI-H719 cell line growth inhibition;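 also: spheroids exposed to compounds for seven days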;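 as to viability, T/C: percent viability relative to DMSO vehicle control as 100%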
Conditions: second compound 0.03 µM; first compound 0.316 µM; stronger effect = lower value; spheroids with HUVEC and MSC

{"columns": ["compound", "targetDesc", "viability, T/C (%)"],
 "data": [
  ["Cc1cc(C)c(CNC(=O)c2cc(-c3ccc(CN4CCOCC4)cc3)cc3c2cnn3C2CCCC2)c(=O)[nH]1 + CC[C@@]1(O)C(=O)OCc2c1cc1n(c2=O)Cc2cc3c(CN(C)C)c(O)ccc3nc2-1", "NCI-H719 tumor spheroids, viability", 6.33],
  ["COc1cc(C)[nH]c(=O)c1CN1CCc2c(Cl)cc(C(OC)C3COC3)c(Cl)c2C1=O (stereo unspecified) + CC[C@@]1(O)C(=O)OCc2c1cc1n(c2=O)Cc2cc3c(CN(C)C)c(O)ccc3nc2-1", "NCI-H719 tumor spheroids, viability", 6.68],
  ["COc1ccc([C@@H](O)c2cc(-c3ncnc4cc(N5CCOCC5)ccc34)c(F)cc2Cl)nn1 + CC[C@@]1(O)C(=O)OCc2c1cc1n(c2=O)Cc2cc3c(CN(C)C)c(O)ccc3nc2-1", "NCI-H719 tumor spheroids, viability", 5.16],
  ["CC1COCCN1c1cc(-c2ccnn2C)c2ccnc(-c3ccn[nH]3)c2n1 (stereo unspecified) + CC[C@@]1(O)C(=O)OCc2c1cc1n(c2=O)Cc2cc3c(CN(C)C)c(O)ccc3nc2-1", "NCI-H719 tumor spheroids, viability", 4.66],
  ["[2H]c1nc(C)nc([2H])c1-c1cc(NC[C@@H](C)c2cccc3c(C(=O)NC)ccnc23)ncn1 + CC[C@@]1(O)C(=O)OCc2c1cc1n(c2=O)Cc2cc3c(CN(C)C)c(O)ccc3nc2-1", "NCI-H719 tumor spheroids, viability", 6.56],
  ["CC(C)n1c(=O)n(C)c2cnc3cc(F)c(-c4ccc(OCCCN5CCCCC5)nc4)cc3c21 + CC[C@@]1(O)C(=O)OCc2c1cc1n(c2=O)Cc2cc3c(CN(C)C)c(O)ccc3nc2-1", "NCI-H719 tumor spheroids, viability", 7.74]
]}

====

Test system: NCI-H719 tumor spheroids, viability
Test: Anticancer human tumor NCI-H719 cell line growth inhibition;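 also: spheroids exposed to compounds for seven days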;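 as to viability, T/C: percent viability relative to DMSO vehicle control as 100%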
Settings: second compound 0.0949 µM; first compound 3.16 µM; stronger effect = lower value; spheroids with HUVEC and MSC

{"columns": ["compound", "viability, T/C / %"],
 "data": [
  ["COc1cc(C)[nH]c(=O)c1CN1CCc2c(Cl)cc(C(OC)C3COC3)c(Cl)c2C1=O (stereo unspecified) + CC[C@@]1(O)C(=O)OCc2c1cc1n(c2=O)Cc2cc3c(CN(C)C)c(O)ccc3nc2-1", 8.75],
  ["Cc1cc(C)c(CNC(=O)c2cc(-c3ccc(CN4CCOCC4)cc3)cc3c2cnn3C2CCCC2)c(=O)[nH]1 + CC[C@@]1(O)C(=O)OCc2c1cc1n(c2=O)Cc2cc3c(CN(C)C)c(O)ccc3nc2-1", 6.69],
  ["[2H]c1nc(C)nc([2H])c1-c1cc(NC[C@@H](C)c2cccc3c(C(=O)NC)ccnc23)ncn1 + CC[C@@]1(O)C(=O)OCc2c1cc1n(c2=O)Cc2cc3c(CN(C)C)c(O)ccc3nc2-1", 7.79],
  ["COc1ccc([C@@H](O)c2cc(-c3ncnc4cc(N5CCOCC5)ccc34)c(F)cc2Cl)nn1 + CC[C@@]1(O)C(=O)OCc2c1cc1n(c2=O)Cc2cc3c(CN(C)C)c(O)ccc3nc2-1", 3.45],
  ["CC(C)n1c(=O)n(C)c2cnc3cc(F)c(-c4ccc(OCCCN5CCCCC5)nc4)cc3c21 + CC[C@@]1(O)C(=O)OCc2c1cc1n(c2=O)Cc2cc3c(CN(C)C)c(O)ccc3nc2-1", 7.78],
  ["CC1COCCN1c1cc(-c2ccnn2C)c2ccnc(-c3ccn[nH]3)c2n1 (stereo unspecified) + CC[C@@]1(O)C(=O)OCc2c1cc1n(c2=O)Cc2cc3c(CN(C)C)c(O)ccc3nc2-1", 3.73]
]}
